assay: modulators of HCV replicon luciferase signal, primary screen, HCV replication inhibitor project, Huh7 cells, luciferase reporter (AID 1109); conditions: 48 h, higher = more signal;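 further: huh7 hepatoma cells harbouring a luciferase neomycin HCV replicon reporter; luciferase luminescence as measure of HCV replicon replication; test concentration not given here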
Give measured z-score for each item. Keep answers brief.
Numbers only.

Sample answers from the record:
CCOC(=O)[C@H]1C/C=C/C[C@H](C(=O)OCC)C(=O)O[C@H]2[C@@H](OC)O[C@H](CO)[C@@H](OC(=O)CCc3ccccc3)[C@@H]2OC1=O	-1.85
CC(=O)n1cc(C(O)C2C=CC3C(=O)N(c4ccccc4)C(=O)C3N2Nc2ccccc2)c2ccccc21 (stereo not drawn)	-1.95
Cc1ccc(S[C@]2(C(=O)NC(C)C)CC(=O)N(Cc3ccccc3C(F)(F)F)[C@@H]2c2ccc(CO)cc2I)cc1	-2.54
C=C[C@@H](C)[C@H](OC(=O)Nc1ccc(SC)cc1)c1ccc(OCCO)cc1	2.09
CC(C)CNC(=O)[C@@]1(c2ccc([N+](=O)[O-])cc2)CC(=O)N(C2CCCCC2)[C@@H]1c1ccc(CO)cc1I	-2.3
CCOc1cc(C(O)C2C=CC3C(=O)N(C)C(=O)C3N2N2CCCCC2)ccc1O (stereo not drawn)	0.403
O=C1NCC(=O)N2[C@@H]1C[C@@H](C(=O)O)[C@H]2c1ccc(O)cc1	2.63

Turning now to a further compound:
Could you share which z-score value was measured for "CN(C)C(=O)[C@]1(CCC(=O)OC(C)(C)C)N=C(c2ccc(OCCCO)cc2)O[C@@H]1c1ccccc1" ? 0.381

meta.source: PubChem BioAssay
